Listed below: inhibition values for each entry.
target: Tyrosine-protein kinase BTK (Homo sapiens); settings: at 0.1 µM
Numbers only here, please. The scale is %.

Solved cases below.
>>> measured("COc1cc2ncn(-c3cc(OCc4ccccc4C(F)(F)F)c(C(N)=O)s3)c2cc1OC")
-3.7
>>> measured("COC(=O)Nc1nc2cc(Oc3ccc(NC(=O)Nc4cccc(C(=O)O)c4)cc3)ccc2[nH]1")
-1.95

q: Consider the molecule shown here: CCCN1CCC(Oc2cc(Nc3nc(Nc4cccc(F)c4C(N)=O)c4cc[nH]c4n3)c(OC)cc2Cl)CC1 What is its recorded inhibition?
a: 0.06

q: Form field: reported inhibition of CNC(=O)c1cncc(/C=C/c2c(Cl)cccc2Cl)c1
a: -3.87

q: I'd like to know its inhibition. The molecule in question is Nc1nc(-c2ccc3c(c2)C(=Cc2cc(Br)c(O)c(Br)c2)C(=O)N3)cs1
a: -1.45

q: Request the reported inhibition associated with COc1cccc(-n2ncc3c(N/N=C/c4cccc(F)c4)ncnc32)c1
a: -5.62

q: I'd like to know its inhibition. The molecule in question is COc1cc(C=NNc2ncnc3c2cnn3-c2ccccc2)ccc1O
a: 1.25

q: Name the reported inhibition value associated with the molecule Cc1nn(C)c2cc(N(C)c3ccnc(Nc4cccc(S(N)(=O)=O)c4)n3)ccc12
a: -0.96

q: Request the reported inhibition associated with NS(=O)(=O)c1ccc(N/N=C2\C(=O)Nc3ccc(C(=O)NCCc4c[nH]cn4)cc32)cc1
a: 1.88

q: Find the recorded inhibition belonging to O=C1NC(=O)C(N2CCc3ccccc32)=C1c1ccc(Cl)cc1 and report it.
a: 0.29

q: Which inhibition is reported for this molecule? CS(=O)(=O)CCNCc1ccc(-c2ccc3ncnc(Nc4ccc(OCc5ccccc5)c(Cl)c4)c3c2)o1
a: -0.28

q: Would you kindly share the measured inhibition for CCCN1CCC=C(c2ccc(Nc3nc(Nc4ccccc4C(N)=O)c4cc[nH]c4n3)c(C)c2)C1 ?
a: -2.03

q: Would you kindly share the measured inhibition for CCn1c(-c2nonc2N)nc2cncc(C(=O)N3CCNCC3)c21 ?
a: -1.34

q: For the molecule CCN1CCC(CC(=O)Nc2n[nH]c3nc(-c4cccs4)c(Br)cc23)CC1 , what inhibition is on record?
a: -1.38

q: Bench note: what inhibition did CS(=O)(=O)CCNCc1nc(-c2ccc3ncnc(Nc4ccc(F)c(Cl)c4)c3c2)cs1 show?
a: 0.64

q: // inhibition lookup, key: O=C(Nc1n[nH]c2nc(-c3ccco3)c(Br)cc12)C1CC1
a: -0.13

q: Recorded inhibition of Cc1ccc(NC(=O)c2ccnc(N3CCCC3)c2)cc1-c1ccc(C(=O)NCC2CC2)cc1 , please.
a: -3.6

q: Which value of inhibition has been reported for NS(=O)(=O)c1cccc(-c2ccc3c(NC(=O)C4CC4)n[nH]c3c2)c1 in the records?
a: -0.13

q: Given the molecule CCn1c(-c2nonc2N)nc2ccncc21 , what is its reported inhibition?
a: -0.43

q: If you can, please state the reported inhibition value of CN1CCC(C(=O)Nc2n[nH]c3nnc(-c4ccccc4)cc23)CC1 .
a: -0.63

----------
target: Serine/threonine-protein kinase D2 (Homo sapiens); details: at 0.1 µM;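 note: reported percent inhibition values are means, part of the GSK PKIS kinase panel screen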
VALUE TYPE: inhibition (%)
State just the number; it will be interpreted in %.

Use these answered entries as a reference point.
>>> measured("Cc1nnc(-c2ccc(C)c(-c3ccc(C(=O)Nc4cccc(C#N)c4)cc3)c2)o1")
2.17
>>> measured("NS(=O)(=O)c1cccc(-c2ccc3c(NC(=O)C4CC4)n[nH]c3c2)c1")
-0.79
>>> measured("Nc1ncnc2occ(-c3ccc(NC(=O)Nc4cccc(C(F)(F)F)c4)cc3)c12")
5.02
>>> measured("CCCN1CCC=C(c2ccc(Nc3nc(Nc4ccccc4C(N)=O)c4cc[nH]c4n3)c(C)c2)C1")
25.1
>>> measured("CCn1c(-c2nonc2N)nc2c(C#CC(C)(C)O)nc(OC[C@@H](N)c3ccccc3)cc21")
-0.26

q: Reported inhibition, compound COC(=O)Nc1nc2cc(Oc3cccc(NC(=O)Nc4cc(C(F)(F)F)ccc4F)c3)ccc2[nH]1 : ____
a: 0.66

q: Query (compound): Fc1cccc(COc2ccc(Nc3ncnc4sc(-c5cccs5)cc34)cc2Cl)c1 ; field requested: inhibition
a: -1.32

q: I have this compound here, CCc1cccc(NC(=O)Nc2ccc(Oc3ccc4nc(NC(=O)OC)[nH]c4c3)cc2)c1 , and I need its recorded inhibition.
a: 0.52

q: Can you look up the measured inhibition of CC1=C(C(=O)Nc2ccc3[nH]ncc3c2)C(c2ccc3ccccc3c2)CC(=O)N1 (centres undefined) for me?
a: 2.02

----------
target: Serine/threonine-protein kinase PAK 2 (Homo sapiens) (UniProt Q13177); conditions: at 0.1 µM;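 note: values are mean percent inhibition of PAK2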
Sequence (Q13177 whole entry): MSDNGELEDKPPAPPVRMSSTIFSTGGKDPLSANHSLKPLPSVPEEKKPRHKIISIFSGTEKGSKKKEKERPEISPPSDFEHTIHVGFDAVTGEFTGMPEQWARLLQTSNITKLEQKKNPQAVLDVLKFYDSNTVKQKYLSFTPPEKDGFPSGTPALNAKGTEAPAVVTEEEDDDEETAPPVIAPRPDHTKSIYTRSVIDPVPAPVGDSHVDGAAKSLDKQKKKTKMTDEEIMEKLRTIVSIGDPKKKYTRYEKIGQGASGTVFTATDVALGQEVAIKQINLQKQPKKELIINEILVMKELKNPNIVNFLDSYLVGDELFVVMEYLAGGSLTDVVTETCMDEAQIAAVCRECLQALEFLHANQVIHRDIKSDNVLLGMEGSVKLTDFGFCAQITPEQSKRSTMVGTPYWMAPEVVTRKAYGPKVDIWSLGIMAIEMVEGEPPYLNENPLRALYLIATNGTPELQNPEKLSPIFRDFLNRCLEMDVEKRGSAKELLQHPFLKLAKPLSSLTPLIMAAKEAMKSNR
VALUE TYPE: inhibition (%)
Numeric only. Scale: %

Some entries whose results are on file:
>>> measured("COc1cc2c(cc1Nc1nc(N3CCc4ccccc43)c3cc[nH]c3n1)N(C(=O)CN(C)C)CC2")
0.89
>>> measured("CS(=O)(=O)CCNCc1ccc(-c2ccc3ncnc(Nc4ccc(OCc5cccc(F)c5)c(C(F)(F)F)c4)c3c2)o1")
1.44
>>> measured("Cc1ccc(C(=O)NC2CCCCC2)cc1-c1ccc(C(=O)NCC2CC2)cc1")
2.09
>>> measured("NC(=O)c1ccc(-c2nc(-c3ccccn3)c(-c3ccc4c(c3)OCO4)[nH]2)cc1")
0.67
>>> measured("COc1ccc2cc(-c3c(-c4ccncc4)nc(-c4ccc([S+](C)[O-])cc4)n3C)ccc2c1 (configuration not stated)")
1.33

q: For Serine/threonine-protein kinase PAK 2 (Homo sapiens) (UniProt Q13177), provide inhibition of NS(=O)(=O)c1ccc(N/N=C2\C(=O)Nc3ccc(C(=O)NCCc4c[nH]cn4)cc32)cc1 please.
a: 1.34

q: Identify the measured inhibition of O=C1NC(=O)C(c2cccc(Cl)c2)=C1Nc1ccc(O)c(Cl)c1 for Serine/threonine-protein kinase PAK 2 (Homo sapiens) (UniProt Q13177).
a: 0.61

----------
biological target: Tyrosine-protein kinase BTK (Homo sapiens) (UniProt Q06187); settings: at 1 µM
Sequence (Q06187 whole entry): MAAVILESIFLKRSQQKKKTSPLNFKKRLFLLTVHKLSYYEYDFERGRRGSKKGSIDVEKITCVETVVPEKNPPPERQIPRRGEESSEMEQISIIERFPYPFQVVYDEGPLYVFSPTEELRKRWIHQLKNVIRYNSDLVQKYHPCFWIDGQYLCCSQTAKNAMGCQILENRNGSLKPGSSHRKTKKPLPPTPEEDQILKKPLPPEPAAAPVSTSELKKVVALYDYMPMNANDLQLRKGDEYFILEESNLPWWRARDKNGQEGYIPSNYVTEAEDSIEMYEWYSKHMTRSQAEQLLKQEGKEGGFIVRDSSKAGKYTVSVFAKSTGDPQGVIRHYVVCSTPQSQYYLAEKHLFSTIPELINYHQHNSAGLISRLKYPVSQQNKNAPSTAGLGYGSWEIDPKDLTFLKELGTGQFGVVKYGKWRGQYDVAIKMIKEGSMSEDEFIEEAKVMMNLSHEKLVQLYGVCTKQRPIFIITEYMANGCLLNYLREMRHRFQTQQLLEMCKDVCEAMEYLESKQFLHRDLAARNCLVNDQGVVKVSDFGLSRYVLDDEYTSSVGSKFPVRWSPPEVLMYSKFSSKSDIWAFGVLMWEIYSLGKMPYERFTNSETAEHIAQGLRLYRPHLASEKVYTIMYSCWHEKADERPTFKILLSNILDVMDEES
VALUE TYPE: inhibition (%)
Give a bare numeral; the unit % is implied.

q: Kindly state the measured inhibition obtained for NS(=O)(=O)c1ccc(N/N=C2\C(=O)Nc3ccc(C(=O)NCCc4c[nH]cn4)cc32)cc1 with Tyrosine-protein kinase BTK (Homo sapiens) (UniProt Q06187).
a: 1.29

q: Recorded inhibition for CS(=O)(=O)CCNCc1ccc(-c2ccc3ncnc(Nc4ccc(OCc5cccc(F)c5)c(C(F)(F)F)c4)c3c2)o1 with Tyrosine-protein kinase BTK (Homo sapiens) (UniProt Q06187), please?
a: -0.77

----------
system: Proto-oncogene tyrosine-protein kinase receptor Ret (Homo sapiens), P07949 [Y791F]; details: at 1 µM
Sequence (P07949 whole entry Y791F): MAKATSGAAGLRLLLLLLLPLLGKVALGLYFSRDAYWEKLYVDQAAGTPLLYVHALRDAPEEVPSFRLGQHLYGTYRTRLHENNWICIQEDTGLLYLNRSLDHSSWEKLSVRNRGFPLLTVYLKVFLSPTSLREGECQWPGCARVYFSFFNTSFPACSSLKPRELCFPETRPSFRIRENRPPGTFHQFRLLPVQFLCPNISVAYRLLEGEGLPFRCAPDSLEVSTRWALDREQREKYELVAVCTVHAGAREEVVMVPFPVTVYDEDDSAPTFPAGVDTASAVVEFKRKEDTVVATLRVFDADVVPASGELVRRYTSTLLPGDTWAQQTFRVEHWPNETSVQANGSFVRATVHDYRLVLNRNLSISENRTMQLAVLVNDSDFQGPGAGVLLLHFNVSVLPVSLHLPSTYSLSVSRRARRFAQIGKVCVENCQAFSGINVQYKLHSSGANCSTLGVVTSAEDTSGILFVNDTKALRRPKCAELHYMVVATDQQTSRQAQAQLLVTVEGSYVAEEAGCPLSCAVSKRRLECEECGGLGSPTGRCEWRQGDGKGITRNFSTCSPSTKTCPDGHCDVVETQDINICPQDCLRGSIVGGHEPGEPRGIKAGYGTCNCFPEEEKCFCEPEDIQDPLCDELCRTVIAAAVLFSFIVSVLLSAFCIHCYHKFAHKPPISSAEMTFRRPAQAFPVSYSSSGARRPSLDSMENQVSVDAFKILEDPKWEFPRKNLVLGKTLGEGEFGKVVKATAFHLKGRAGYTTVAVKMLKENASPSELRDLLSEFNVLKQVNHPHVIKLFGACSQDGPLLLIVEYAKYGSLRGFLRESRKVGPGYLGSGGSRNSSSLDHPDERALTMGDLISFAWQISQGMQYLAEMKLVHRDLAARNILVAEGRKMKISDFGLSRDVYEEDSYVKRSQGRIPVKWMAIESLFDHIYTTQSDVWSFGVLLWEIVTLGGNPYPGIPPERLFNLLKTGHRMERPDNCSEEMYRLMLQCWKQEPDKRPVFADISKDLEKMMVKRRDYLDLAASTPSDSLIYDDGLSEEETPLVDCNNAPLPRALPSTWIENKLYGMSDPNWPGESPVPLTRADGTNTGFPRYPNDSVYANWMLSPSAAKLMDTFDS
VALUE TYPE: inhibition (%)
Write down the numeric answer in % and omit the unit.

Solved entries (count: 4):
>>> measured("COc1ccc(-c2nn3ncccc3c2-c2ccnc(Nc3ccc(Cl)c(C(F)(F)F)c3)n2)cc1")
13.3
>>> measured("NS(=O)(=O)c1ccc(N/N=C2\\C(=O)Nc3ccc(C(=O)NCCc4c[nH]cn4)cc32)cc1")
63.7
>>> measured("CCN1CCC(CC(=O)Nc2n[nH]c3nc(-c4cccs4)c(Br)cc23)CC1")
-0.99
>>> measured("COC(=O)Nc1nc2cc(Oc3ccc(NC(=O)Nc4cccc(C(=O)O)c4)cc3)ccc2[nH]1")
26.3

Now, please, on to the next molecule.
q: Suppose we examine the molecule [O-][S+]1CCN(Cc2ccc(-c3ccc4ncnc(Nc5ccc(OCc6ccccc6)c(F)c5)c4c3)o2)CC1 ; what inhibition value has been reported?
a: 5.92

----------
Biological target: Inhibitor of nuclear factor kappa-B kinase subunit epsilon (Homo sapiens) (UniProt Q14164);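 note: mean inhibition of IKKε reported, from the GSK PKIS dataset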
Sequence (whole entry): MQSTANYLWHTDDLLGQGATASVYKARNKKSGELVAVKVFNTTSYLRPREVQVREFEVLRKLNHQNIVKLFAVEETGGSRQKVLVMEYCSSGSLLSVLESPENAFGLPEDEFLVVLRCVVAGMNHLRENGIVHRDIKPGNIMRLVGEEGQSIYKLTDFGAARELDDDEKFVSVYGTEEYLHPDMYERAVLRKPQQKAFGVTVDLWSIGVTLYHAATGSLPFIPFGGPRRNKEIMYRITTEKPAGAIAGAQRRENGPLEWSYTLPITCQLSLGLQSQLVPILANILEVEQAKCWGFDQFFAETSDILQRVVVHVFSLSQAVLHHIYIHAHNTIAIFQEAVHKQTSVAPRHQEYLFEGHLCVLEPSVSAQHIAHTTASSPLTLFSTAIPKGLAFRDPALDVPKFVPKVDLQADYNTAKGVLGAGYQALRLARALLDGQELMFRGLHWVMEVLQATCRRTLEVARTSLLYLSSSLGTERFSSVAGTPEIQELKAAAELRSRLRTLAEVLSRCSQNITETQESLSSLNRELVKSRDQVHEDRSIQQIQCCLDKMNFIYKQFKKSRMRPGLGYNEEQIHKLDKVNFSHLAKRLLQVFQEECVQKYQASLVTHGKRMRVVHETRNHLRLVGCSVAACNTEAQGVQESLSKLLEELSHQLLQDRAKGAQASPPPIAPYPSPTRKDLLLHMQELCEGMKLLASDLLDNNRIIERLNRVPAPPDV
Details: at 0.1 µM
VALUE TYPE: inhibition (%)
Entry rule: numbers only, all in %.

Known results for compounds:
>>> measured("CC(=O)Nc1cccc(C#Cc2cncnc2Nc2ccc(OCc3cccc(F)c3)c(Cl)c2)n1")
2.95
>>> measured("CCn1c(-c2nonc2N)nc2cnc(Oc3cccc(NC(=O)c4ccc(OCCN5CCOCC5)cc4)c3)cc21")
7.92

q: Suppose we examine the compound Cn1cc(C=C2C(=O)Nc3cccnc32)c2ccccc21 ; what inhibition value has been reported?
a: 3.13

q: May I ask what inhibition has been recorded for COc1cc2ncn(-c3cc(O[C@H](C)c4ccccc4Cl)c(C(N)=O)s3)c2cc1OC ?
a: 8.51

q: // inhibition lookup, key: Fc1cccc(COc2ccc(Nc3ncnc4sc(-c5cccs5)cc34)cc2Cl)c1
a: -0.11

q: Endpoint output: inhibition of CS(=O)(=O)CCNCc1nc(-c2ccc3ncnc(Nc4ccc(F)c(Cl)c4)c3c2)cs1 . Value?
a: 1.53

q: Dear colleague, I am looking for the recorded inhibition of the following compound: CC(C)=Cc1cccc2c1/C(=N/Nc1ccc(S(N)(=O)=O)cc1)C(=O)N2
a: 5.72
